biological target: monkey GPC3-His protein (monkey); assay: ELISA, monkey GPC3-His coated; antibody 0.0008 nM
metric-name: OD450 nm

Request: Please look up its OD450 nm: hAb006LH2L1b (antibody, human IgG1, V domains shown) VH: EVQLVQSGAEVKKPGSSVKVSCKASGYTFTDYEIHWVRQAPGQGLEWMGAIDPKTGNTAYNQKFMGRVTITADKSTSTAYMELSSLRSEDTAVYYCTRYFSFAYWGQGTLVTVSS VL: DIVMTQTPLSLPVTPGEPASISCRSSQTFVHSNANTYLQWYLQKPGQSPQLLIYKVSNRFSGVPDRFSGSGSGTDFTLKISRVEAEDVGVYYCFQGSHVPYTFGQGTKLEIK
Result: 0.128
